Parameter: GI50. Scope: all listed entries.
system: OVCAR-8 ovarian; test: NCI tumour cell line growth inhibition, 48 h
recorded.endpoint: GI50

* C=CCNCCCN1C(=O)c2ccc3c4c(ccc(c24)C1=O)C(=O)N(CCCNCC=C)C3=O | 0.312 µM
* C[C@]12CC[C@@H]3c4ccc(O)cc4CC[C@H]3[C@@H]1CC[C@@H]2NS(=O)(=O)c1cccc(C(F)(F)F)c1 | 4.65 µM
* CCN1CCN(CC(=O)Nc2nc3ccc(NCc4ccc(Cl)cc4)cc3s2)CC1 | 4.59 µM
* CC(CN1CCN(C)CC1)CN1c2ccccc2Sc2ccc(C(F)(F)F)cc21 (stereo unspecified) | 1.76 µM
* COc1cc(C(O)c2nc3ccccc3s2)cc(OC)c1OC (stereo unspecified) | > 100 µM
* Cn1c(=O)c(Oc2ccc(F)cc2F)cc2cnc(NC(CO)CO)nc21 | > 25 µM
* CN(c1ccc(NC(=O)Nc2ccc(OC(F)(F)F)cc2)cc1)c1ccnc(Nc2cccc(S(N)(=O)=O)c2)n1 | 3.07 µM
* COc1ccc(C(=O)/C=C/c2c(C(F)(F)F)nc3sccn23)cc1OC | 2.4 µM
* COC(=O)c1cc(-c2cc(OC)c(OC)c(OC)c2)[nH]c1N/N=C/c1c(Cl)cccc1Cl | 1.48 µM
* CS(=O)(=O)c1ccc(-c2cnc(N)c(C(=O)Nc3ccccc3)n2)cc1 | > 45 µM
* NC(=NC1CCCCCCC1)c1ccc(N2CCN(c3ccc(C(N)=NC4CCCCCCC4)cc3)CC2)cc1 | 4.9 µM
